# Test system: 134 cancer cell lines
# EXPERIMENT: Cell viability assay (ATPlite, 72 hours), IC50 on cancer cell line panel
# EXPERIMENTAL CONDITIONS: Homo sapiens, RL95-2, read-out: IC50 in cell proliferation assay
EXPERIMENTAL ENDPOINT: pIC50
Quick note: pIC50 means taking -log10 of the concentration in moles per liter.

Ask: Query pIC50 on 134 cancer cell lines for CCc1cc2c(cc1N1CCC(N3CCOCC3)CC1)C(C)(C)c1[nH]c3cc(C#N)ccc3c1C2=O [alectinib]
Reply: 5.88

###

# SUBJECT OF TEST: UniProt P29322
# Sequence (P29322 28-1005): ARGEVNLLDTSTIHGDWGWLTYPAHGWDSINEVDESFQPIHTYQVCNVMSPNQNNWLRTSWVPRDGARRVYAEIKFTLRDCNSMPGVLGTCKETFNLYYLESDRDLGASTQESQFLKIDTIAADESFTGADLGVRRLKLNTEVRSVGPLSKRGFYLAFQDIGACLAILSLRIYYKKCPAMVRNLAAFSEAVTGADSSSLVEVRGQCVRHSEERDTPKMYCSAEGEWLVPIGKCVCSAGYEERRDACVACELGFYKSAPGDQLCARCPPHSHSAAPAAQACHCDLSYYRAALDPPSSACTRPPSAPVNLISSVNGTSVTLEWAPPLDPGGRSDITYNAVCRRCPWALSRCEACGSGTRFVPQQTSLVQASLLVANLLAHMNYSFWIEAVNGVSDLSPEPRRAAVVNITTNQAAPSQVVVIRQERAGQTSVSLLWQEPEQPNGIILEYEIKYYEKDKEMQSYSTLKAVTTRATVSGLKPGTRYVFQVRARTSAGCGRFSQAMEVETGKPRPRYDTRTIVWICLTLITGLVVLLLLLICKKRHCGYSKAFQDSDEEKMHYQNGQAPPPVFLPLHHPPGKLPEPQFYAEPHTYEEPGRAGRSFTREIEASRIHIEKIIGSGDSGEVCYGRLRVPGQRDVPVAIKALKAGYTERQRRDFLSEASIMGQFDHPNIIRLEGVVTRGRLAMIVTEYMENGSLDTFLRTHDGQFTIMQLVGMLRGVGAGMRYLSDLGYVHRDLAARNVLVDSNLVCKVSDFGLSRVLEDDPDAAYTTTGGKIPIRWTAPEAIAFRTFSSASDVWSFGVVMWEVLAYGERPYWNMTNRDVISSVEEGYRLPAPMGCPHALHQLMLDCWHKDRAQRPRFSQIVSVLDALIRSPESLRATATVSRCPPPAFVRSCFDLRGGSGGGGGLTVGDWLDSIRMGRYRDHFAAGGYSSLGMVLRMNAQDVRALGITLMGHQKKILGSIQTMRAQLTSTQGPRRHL
# EXPERIMENT: Kinase panel profiling at 1 µmol/L (MSA or IMAP), percentage inhibition
# Assay type: biochemical
# EXPERIMENTAL CONDITIONS: kinase EPHA8; 1 µmol/L single concentration; read-out: %-inhibition at 1 µmol/L, EPHA8
The molecules listed here are annotated with their inhibition at 1 µM.
Could you give me the number in %? Just the number is fine.

>>> df
                                   molecule  experimental_endpoint  endpoint_result
0  O=C(Nc1cnn2ccc(N3CCC[C@@H]3c3cc(F)ccc3F)nc12)N1CC[C@H](O)C1 [larotrectinib]     inhibition at 1 µM               -9

Ask: What value of inhibition at 1 µM has been reported for the following molecule? CCN1CCN(c2ccc(Nc3cc(N(C)C(=O)Nc4c(Cl)c(OC)cc(OC)c4Cl)ncn3)cc2)CC1 [infigratinib]
Reply: -10

Ask: Param item: C[C@H]1Oc2cc(cnc2N)-c2c(nn(C)c2C#N)CN(C)C(=O)c2ccc(F)cc21 [lorlatinib]
Reply: 6

Ask: Param item: COC(=O)N[C@@H](C)CNc1nccc(-c2cn(C(C)C)nc2-c2cc(Cl)cc(NS(C)(=O)=O)c2F)n1 [encorafenib]
Reply: 16

Ask: Param item: C[C@H](Nc1ncnc2nc[nH]c12)c1cc2cccc(Cl)c2c(=O)n1-c1ccccc1 [duvelisib]
Reply: -7

Ask: Param item: C=CC(=O)N1CCC([C@@H]2CCNc3c(C(N)=O)c(-c4ccc(Oc5ccccc5)cc4)nn32)CC1 [zanubrutinib]
Reply: -8

Ask: Param item: Cc1nc(NC(=O)N2CCC[C@H]2C(N)=O)sc1-c1ccnc(C(C)(C)C(F)(F)F)c1 [alpelisib]
Reply: -6.59

###

# SUBJECT OF TEST: panel of 255 wild-type kinases (Homo sapiens)
# EXPERIMENT: Kinase panel profiling at 1 µmol/L (MSA or IMAP), percentage inhibition
# Type: biochemical
# EXPERIMENTAL CONDITIONS: kinase CK1ε; 1 µmol/L single concentration; read-out: %-inhibition at 1 µmol/L, CK1ε
The molecules listed here are annotated with their inhibition at 1 µM.
Could you give me the number in %? Just the number is fine.

>>> print(df.to_string())
                                   molecule  units_text  endpoint_result
0  C[C@H]1Oc2cc(cnc2N)-c2c(nn(C)c2C#N)CN(C)C(=O)c2ccc(F)cc21 [lorlatinib]           %            0.583
1  Cn1cnc2c(F)c(Nc3ccc(Br)cc3F)c(C(=O)NOCCO)cc21 [binimetinib]           %            -3.48
2  FC(F)(F)c1ccc(CNc2ccc(Cc3c[nH]c4ncc(Cl)cc34)cn2)cn1 [pexidartinib]           %             5.38

Please look at the following molecule next.
Ask: What value of inhibition at 1 µM has been reported for the following molecule? O=C(Nc1cnn2ccc(N3CCC[C@@H]3c3cc(F)ccc3F)nc12)N1CC[C@H](O)C1 [larotrectinib]
Reply: -2.19

###

# SUBJECT OF TEST: panel of 255 wild-type kinases (Homo sapiens, UniProt Q13555)
# Sequence (Q13555 whole entry): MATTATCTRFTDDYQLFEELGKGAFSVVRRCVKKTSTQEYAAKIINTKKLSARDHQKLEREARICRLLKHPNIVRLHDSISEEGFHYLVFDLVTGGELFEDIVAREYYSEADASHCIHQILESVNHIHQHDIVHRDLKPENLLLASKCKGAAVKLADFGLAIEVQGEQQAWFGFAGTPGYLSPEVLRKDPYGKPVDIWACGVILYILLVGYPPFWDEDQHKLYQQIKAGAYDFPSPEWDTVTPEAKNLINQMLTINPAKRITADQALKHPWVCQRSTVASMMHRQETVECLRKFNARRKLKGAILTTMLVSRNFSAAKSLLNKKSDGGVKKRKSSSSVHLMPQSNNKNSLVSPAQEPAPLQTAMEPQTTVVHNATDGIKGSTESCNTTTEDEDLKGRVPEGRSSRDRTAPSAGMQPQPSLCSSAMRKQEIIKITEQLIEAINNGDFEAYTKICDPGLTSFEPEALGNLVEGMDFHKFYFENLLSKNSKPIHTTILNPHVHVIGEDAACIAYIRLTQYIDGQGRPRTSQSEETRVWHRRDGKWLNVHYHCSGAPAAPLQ
# EXPERIMENT: Kinase panel profiling at 1 µmol/L (MSA or IMAP), percentage inhibition
# Type: biochemical
# EXPERIMENTAL CONDITIONS: CaMK2γ kinase assay; 1 µmol/L single concentration; read-out: %-inhibition CaMK2γ
EXPERIMENTAL ENDPOINT: inhibition at 1 µM (%)
Could you give me the number in %? Just the number is fine.

Examples with answers:
In [3]: df
Out[3]:
                            chemical_smiles  endpoint_result
0  CO[C@]1(C(=O)N[C@@H](C)c2ccc(-n3cc(F)cn3)nc2)CC[C@H](c2nc(C)cc(Nc3cc(C)[nH]n3)n2)CC1               -3
1  C=CC(=O)N1CCC([C@@H]2CCNc3c(C(N)=O)c(-c4ccc(Oc5ccccc5)cc4)nn32)CC1              1.6
2  C[C@H]1Oc2cc(cnc2N)-c2c(nn(C)c2C#N)CN(C)C(=O)c2ccc(F)cc21               10

Ask: What value of inhibition at 1 µM has been reported for the following compound? CCN1CCN(c2ccc(Nc3cc(N(C)C(=O)Nc4c(Cl)c(OC)cc(OC)c4Cl)ncn3)cc2)CC1
Reply: -3.37

###

The compounds listed here are annotated with their inhibition at 1 µM.
# SUBJECT OF TEST: panel of 255 wild-type kinases (Homo sapiens, UniProt P29323)
# Sequence (P29323 19-1055): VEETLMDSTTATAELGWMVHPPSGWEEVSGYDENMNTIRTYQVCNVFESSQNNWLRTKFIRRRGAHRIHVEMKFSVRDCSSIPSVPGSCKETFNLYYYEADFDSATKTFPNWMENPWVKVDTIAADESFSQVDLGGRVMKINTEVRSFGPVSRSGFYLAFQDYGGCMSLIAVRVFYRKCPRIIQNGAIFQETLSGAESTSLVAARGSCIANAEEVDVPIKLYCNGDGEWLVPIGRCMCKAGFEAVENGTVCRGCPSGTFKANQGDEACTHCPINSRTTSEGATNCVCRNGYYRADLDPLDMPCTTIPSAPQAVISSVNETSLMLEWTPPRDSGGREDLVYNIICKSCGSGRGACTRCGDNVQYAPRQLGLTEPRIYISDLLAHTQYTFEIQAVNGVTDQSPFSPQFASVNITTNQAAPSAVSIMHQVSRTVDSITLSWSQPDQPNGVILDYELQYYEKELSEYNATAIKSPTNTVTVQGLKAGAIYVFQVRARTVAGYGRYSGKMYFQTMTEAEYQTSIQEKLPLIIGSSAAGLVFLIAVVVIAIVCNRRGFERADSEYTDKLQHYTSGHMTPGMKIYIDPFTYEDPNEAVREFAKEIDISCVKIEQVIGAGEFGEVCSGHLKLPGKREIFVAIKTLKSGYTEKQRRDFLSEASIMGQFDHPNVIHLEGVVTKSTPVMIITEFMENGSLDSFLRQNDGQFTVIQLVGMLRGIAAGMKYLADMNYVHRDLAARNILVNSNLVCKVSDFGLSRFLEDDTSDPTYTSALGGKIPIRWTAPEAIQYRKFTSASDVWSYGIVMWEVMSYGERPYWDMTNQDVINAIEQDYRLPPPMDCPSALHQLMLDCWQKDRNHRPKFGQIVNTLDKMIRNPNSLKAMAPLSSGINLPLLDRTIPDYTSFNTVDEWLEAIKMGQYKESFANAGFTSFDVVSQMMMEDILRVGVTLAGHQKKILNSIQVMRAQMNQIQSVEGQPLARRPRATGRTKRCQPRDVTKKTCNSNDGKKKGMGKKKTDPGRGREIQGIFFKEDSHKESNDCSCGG
# EXPERIMENT: Kinase panel profiling at 1 µmol/L (MSA or IMAP), percentage inhibition
# Format: biochemical
# EXPERIMENTAL CONDITIONS: kinase EPHB2; 1 µmol/L single concentration; read-out: %-inhibition at 1 µmol/L, EPHB2
Could you give me the number in %? Just the number is fine.

Examples with answers:
>>> print(df.to_string())
                            chemical_smiles  experimental_endpoint  endpoint_result
0  COc1ccc(CN2C3CC2CN(c2ccc(-c4cc(OCC(C)(C)O)cn5ncc(C#N)c45)cn2)C3)cn1     inhibition at 1 µM               64
1  CCN1C(=O)N(c2c(F)c(OC)cc(OC)c2F)Cc2cnc3[nH]c(CN4CCOCC4)cc3c21     inhibition at 1 µM           -0.799
2  C[C@H]1Oc2cc(cnc2N)-c2c(nn(C)c2C#N)CN(C)C(=O)c2ccc(F)cc21     inhibition at 1 µM               14
3  CO[C@]1(C(=O)N[C@@H](C)c2ccc(-n3cc(F)cn3)nc2)CC[C@H](c2nc(C)cc(Nc3cc(C)[nH]n3)n2)CC1     inhibition at 1 µM               35
4  CN1CCN(c2ccc(C(=O)Nc3n[nH]c4ccc(Cc5cc(F)cc(F)c5)cc34)c(NC3CCOCC3)c2)CC1     inhibition at 1 µM               64

Ask: What value of inhibition at 1 µM has been reported for the following compound? O=C(Nc1cnn2ccc(N3CCC[C@@H]3c3cc(F)ccc3F)nc12)N1CC[C@H](O)C1
Reply: -0.574

Ask: Param item: C[C@H](Nc1ncnc2nc[nH]c12)c1cc2cccc(Cl)c2c(=O)n1-c1ccccc1
Reply: 2

Ask: Param item: CCN1CCN(c2ccc(Nc3cc(N(C)C(=O)Nc4c(Cl)c(OC)cc(OC)c4Cl)ncn3)cc2)CC1
Reply: -0.114

Ask: Param item: Cn1cnc2c(F)c(Nc3ccc(Br)cc3Cl)c(C(=O)NOCCO)cc21
Reply: -0.445

Ask: Param item: CCn1c(=O)c(-c2cc(NC(=O)Nc3ccccc3)c(F)cc2Br)cc2cnc(NC)cc21
Reply: 75

Ask: Param item: COC(=O)N[C@@H](C)CNc1nccc(-c2cn(C(C)C)nc2-c2cc(Cl)cc(NS(C)(=O)=O)c2F)n1
Reply: 5.43
